- targetOrSystem: GPR6 receptor expressed in CHO-K1 cells (Homo sapiens, UniProt P46095)
- Construct: expressed in transfected cells
- Sequence (P46095 whole entry): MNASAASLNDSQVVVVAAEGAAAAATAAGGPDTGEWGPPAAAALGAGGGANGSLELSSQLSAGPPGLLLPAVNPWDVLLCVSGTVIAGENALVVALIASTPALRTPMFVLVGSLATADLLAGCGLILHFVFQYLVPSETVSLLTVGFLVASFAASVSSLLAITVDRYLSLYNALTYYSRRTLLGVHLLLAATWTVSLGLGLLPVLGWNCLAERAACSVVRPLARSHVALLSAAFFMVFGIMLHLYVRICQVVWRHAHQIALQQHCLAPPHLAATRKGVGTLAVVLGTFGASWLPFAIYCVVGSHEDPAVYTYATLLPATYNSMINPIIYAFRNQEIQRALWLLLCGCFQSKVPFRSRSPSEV
- assayExplanation: In vitro inhibition of cAMP (EC50), cell-based HTRF cAMP assay
- protocolConditions: inhibition of constitutive cAMP activity of GPR6 in CHO-K1 cells
measuredAttribute: pEC50, in vitro inhibition of cAMP

• Cn1cccc(C(=O)Nc2cc(C#N)ccc2N2CCC(Oc3ncc(F)cc3F)CC2)c1=O [Example 293] = 6.6
• CCn1c(C)cc(C)c(C(=O)Nc2cc(C#N)ccc2N2CCC(Oc3ccc(F)cc3F)CC2)c1=O [Example 202] = 6.3
• COc1cc(C)ccc1C(=O)Nc1cc(C#N)ccc1N1CCC(Oc2ccc(F)cc2F)CC1 [Example 236] = 7.1
• COc1ncccc1C(=O)Nc1cc(CNC(C)=O)cnc1N1CCC(Oc2ccc(F)cc2F)CC1 [Example 64] = 7.0
